# maps each entry to its EC50
Molecular target: NLRP3 inflammasome (Homo sapiens)
Construct: host or cells: THP-1 human monocytic cells, treated with PMA and stimulated with gramicidin
Sequence (Q96P20 whole entry): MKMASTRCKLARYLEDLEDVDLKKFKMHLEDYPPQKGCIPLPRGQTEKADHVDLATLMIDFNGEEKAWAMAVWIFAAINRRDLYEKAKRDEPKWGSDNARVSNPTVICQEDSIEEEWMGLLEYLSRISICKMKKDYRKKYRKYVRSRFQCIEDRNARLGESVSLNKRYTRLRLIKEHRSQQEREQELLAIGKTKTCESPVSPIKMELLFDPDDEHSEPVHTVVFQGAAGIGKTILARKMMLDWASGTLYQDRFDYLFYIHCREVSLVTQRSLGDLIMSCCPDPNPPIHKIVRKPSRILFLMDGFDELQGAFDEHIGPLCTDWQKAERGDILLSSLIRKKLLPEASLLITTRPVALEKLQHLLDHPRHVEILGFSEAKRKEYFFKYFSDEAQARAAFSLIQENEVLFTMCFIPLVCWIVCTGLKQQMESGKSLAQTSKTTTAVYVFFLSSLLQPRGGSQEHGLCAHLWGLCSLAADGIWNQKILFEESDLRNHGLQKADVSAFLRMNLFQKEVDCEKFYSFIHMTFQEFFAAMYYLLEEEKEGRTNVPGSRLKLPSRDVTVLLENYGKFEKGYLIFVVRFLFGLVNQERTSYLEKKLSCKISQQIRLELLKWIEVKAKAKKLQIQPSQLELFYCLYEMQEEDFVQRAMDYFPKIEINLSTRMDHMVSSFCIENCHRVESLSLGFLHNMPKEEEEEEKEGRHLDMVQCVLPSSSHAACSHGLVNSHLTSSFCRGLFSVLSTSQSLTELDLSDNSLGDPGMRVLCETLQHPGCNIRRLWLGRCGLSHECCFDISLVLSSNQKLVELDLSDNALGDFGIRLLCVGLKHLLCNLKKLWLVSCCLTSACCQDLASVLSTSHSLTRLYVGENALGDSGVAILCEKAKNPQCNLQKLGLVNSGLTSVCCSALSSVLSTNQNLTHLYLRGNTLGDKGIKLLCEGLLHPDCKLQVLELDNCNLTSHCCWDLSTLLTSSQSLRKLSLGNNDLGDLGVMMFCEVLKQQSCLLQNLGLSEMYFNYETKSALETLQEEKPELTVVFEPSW
Test: ASC-SPECK formation in THP-1 cells after gramicidin stimulation (NLRP3 inflammasome activation)
Assay type: cell-based
Conditions: PMA-treated human monocytic THP-1 cells; compound 1 h before 12.5 μg/ml gramicidin, 3-hour treatment; ASC SPECK imaging; read-out: EC50 values (nM) for Examples that inhibit NLRP3 inflammasome activation
property.label: EC50 (nM)

CCN1CCC[C@@H](n2cnc3c(C)c(-c4ccc(Cl)cc4O)nnc32)C1    29
Cc1c(-c2ccc(C(F)(F)F)cc2O)nnc2c1ncn2[C@H]1CCCN2CCC[C@H]12 (single isomer, unassigned)    1360
Cc1c(-c2ccc(C(F)(F)F)cc2O)nnc2c1ncn2[C@H]1CN(C)CC[C@H]1O    147
Cc1c(-c2ccc(C(F)(F)F)cc2O)nnc2c1ncn2[C@@H]1CCCN(C)C1    25
